Origin of measurements: patent US10836757B1

# ASSAY SUMMARY: Clinical comparative pharmacokinetic study, 3-period cross-over, single oral doses, plasma samples
# Format: in vivo, human
# MEASUREMENT PARAMETERS: human, plasma, po, 15 mg, 15 mg oral, n = 15, fasted; read-out: Cmax Geometric Least Square Mean (GLSM)
Counter-ions that a name gives are not always drawn.
EXPERIMENTAL READOUT: Cmax
For clarity, give the value followed by its unit.

Per the records, this molecule ( CS(=O)(=O)c1ccc2c(c1)N(CCCN1CCC(C(N)=O)CC1)c1ccccc1S2 [Metopimazine mesylate Crystal Form A] ) has Cmax equal to 18.2 ng/mL

----------
# ASSAY SUMMARY: Clinical comparative pharmacokinetic study, 3-period cross-over, single oral doses, plasma samples
# Assay type: in vivo, human
# MEASUREMENT PARAMETERS: human, plasma, po, 15 mg, 15 mg oral, n = 15, fasted; read-out: AUC0-inf Geometric Least Square Mean (GLSM)
Counter-ions that a name gives are not always drawn.
EXPERIMENTAL READOUT: AUC(0-inf) (ng·h/mL)
Could you give me the number in ng·h/mL? Just the number is fine.

Per the records, this compound ( CS(=O)(=O)c1ccc2c(c1)N(CCCN1CCC(C(N)=O)CC1)c1ccccc1S2 [Metopimazine mesylate Crystal Form A] ) has AUC(0-inf) equal to 64

----------
# ASSAY SUMMARY: Clinical comparative pharmacokinetic study, 3-period cross-over, single oral doses, plasma samples
# Type: in vivo, human
# MEASUREMENT PARAMETERS: human, plasma, po, 15 mg, 15 mg oral, n = 15, fed high fat breakfast (1030 kcal, 16% protein, 61% fat, 23% carbohydrate); read-out: AUC0-inf Geometric Least Square Mean (GLSM)
Where a name gives a salt, the structure may show the parent alone.
EXPERIMENTAL READOUT: AUC(0-inf) (ng·h/mL)
Could you give me the number in ng·h/mL? Just the number is fine.

Per the records, this compound ( CS(=O)(=O)c1ccc2c(c1)N(CCCN1CCC(C(N)=O)CC1)c1ccccc1S2 [Metopimazine mesylate Crystal Form A] ) has AUC(0-inf) equal to 59.9

----------
# ASSAY SUMMARY: Clinical comparative pharmacokinetic study, 3-period cross-over, single oral doses, plasma samples
# Format: in vivo, human
# MEASUREMENT PARAMETERS: human, plasma, po, 15 mg, 15 mg oral, n = 15, fed high fat breakfast (1030 kcal, 16% protein, 61% fat, 23% carbohydrate); read-out: Cmax Geometric Least Square Mean (GLSM)
Structures can show the parent of a compound that is named as a salt.
EXPERIMENTAL READOUT: Cmax (ng/mL)
Could you give me the number in ng/mL? Just the number is fine.

Per the records, this compound ( CS(=O)(=O)c1ccc2c(c1)N(CCCN1CCC(C(N)=O)CC1)c1ccccc1S2 [Metopimazine mesylate Crystal Form A] ) has Cmax equal to 15.3

----------
# ASSAY SUMMARY: Clinical comparative pharmacokinetic study, 3-period cross-over, single oral doses, plasma samples
# Format: in vivo, human
# MEASUREMENT PARAMETERS: human, plasma, po, 15 mg, single oral dose 15 mg, n = 15, fasted, plasma; read-out: Tmax, Median
# Protocol: A clinical comparative pharmacokinetic study was performed to understand the pharmacokinetic profile of metopimazine mesylate Crystal Form A in comparison to the free base of metopimazine. […] Plasma samples from each subject were analyzed for various pharmacokinetic parameters. […]
Where a name gives a salt, the structure may show the parent alone.
EXPERIMENTAL READOUT: Tmax (min)
Could you give me the number in min? Just the number is fine.

Per the records, this compound ( CS(=O)(=O)c1ccc2c(c1)N(CCCN1CCC(C(N)=O)CC1)c1ccccc1S2 [Metopimazine mesylate Crystal Form A] ) has Tmax equal to 45
